- System: PmTbr T-box DNA-binding domain (GST fusion);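 note: 200 nM protein in PBS on universal arrays averaged over duplicate arrays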
- Sequence: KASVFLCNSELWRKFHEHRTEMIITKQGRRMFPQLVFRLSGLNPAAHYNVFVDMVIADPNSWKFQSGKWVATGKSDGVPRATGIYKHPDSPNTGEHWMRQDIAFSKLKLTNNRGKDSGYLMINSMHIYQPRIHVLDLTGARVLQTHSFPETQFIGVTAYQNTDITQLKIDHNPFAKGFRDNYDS
- experimentSummary: PBM E-score of 8-mer (E-score (dimensionless, -0.5 to 0.5)); higher = stronger binding preference
- conditionInfo: the construct has about 5 more residues each side
Over roughly 33,000 sequences, “E-score (dimensionless, -0.5 to 0.5)” has its median near -0.049; the highest 2% begin near 0.37. This excerpt belongs to a sample that is enriched for the highest values.
endpoint: PBM E-score of 8-mer

Before answering, review these 2 worked examples.
The recorded PBM E-score of 8-mer for AAGGGGGG is -0.444

The recorded PBM E-score of 8-mer for GTACTTAA is -0.16

Pending sequence:
The recorded PBM E-score of 8-mer for CTCCTTGC is -0.127

###

Attribute: PBM E-score of 8-mer
- Test system: PmTbr T-box DNA-binding domain (GST fusion);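 note: 200 nM protein in PBS on universal arrays averaged over duplicate arrays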
- Sequence: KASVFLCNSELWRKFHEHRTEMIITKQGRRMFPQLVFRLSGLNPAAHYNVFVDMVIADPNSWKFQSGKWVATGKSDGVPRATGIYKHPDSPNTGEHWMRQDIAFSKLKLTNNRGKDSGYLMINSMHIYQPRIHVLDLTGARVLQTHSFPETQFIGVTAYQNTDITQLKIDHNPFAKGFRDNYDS
- experimentSummary: PBM E-score of 8-mer (E-score (dimensionless, -0.5 to 0.5)); higher = stronger binding preference
- conditionInfo: target sequence: T-box / the construct has about 5 more residues each side
The full ranking holds about 33,000 sequences; the median of “E-score (dimensionless, -0.5 to 0.5)” is about -0.049, and the highest 2% start at about 0.37. The sample holds the highest values, similar sequences and a random draw of the others, so the mix is not that of the screen.
The response must contain the number and no unit.

Before answering, review these 5 worked examples.
The recorded PBM E-score of 8-mer for CGAAGGGA is 0.00651

The recorded PBM E-score of 8-mer for ACTGTCAT is 0.163

The recorded PBM E-score of 8-mer for AGGTCTGG is 0.0461

The recorded PBM E-score of 8-mer for CAGACACC is 0.355

The recorded PBM E-score of 8-mer for CTGACAGC is 0.289

Further cases:
The recorded PBM E-score of 8-mer for CGCAACAG is 0.0766

The recorded PBM E-score of 8-mer for GGGACACC is 0.216

###

- Test system: PmTbr T-box DNA-binding domain (GST fusion);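 note: 200 nM protein in PBS on universal arrays averaged over duplicate arrays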
- Sequence: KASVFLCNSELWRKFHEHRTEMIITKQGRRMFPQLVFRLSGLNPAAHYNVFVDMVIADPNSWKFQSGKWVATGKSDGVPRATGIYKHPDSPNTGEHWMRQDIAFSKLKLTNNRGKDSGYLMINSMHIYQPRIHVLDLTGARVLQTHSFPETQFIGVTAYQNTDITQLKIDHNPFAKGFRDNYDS
- experimentSummary: PBM E-score of 8-mer (E-score (dimensionless, -0.5 to 0.5)); higher = stronger binding preference
- conditionInfo: target sequence: T-box / the construct has about 5 more residues each side
Over roughly 33,000 sequences, “E-score (dimensionless, -0.5 to 0.5)” has its median near -0.049; the highest 2% begin near 0.37. This is one part of a sample in which the highest values are shown more often than they occur.
Outcome: 1.0 for PBM E-score of 8-mer of at least 0.05; 0.0 for anything lower.

Prompt: Confirm if PBM E-score of 8-mer reported for the sequence ATGAGGTA is 0.05 or above.
Response: 0.0

Prompt: Confirm if PBM E-score of 8-mer reported for the sequence CGTGGCAC is 0.05 or above.
Response: 1.0

Prompt: Confirm if PBM E-score of 8-mer reported for the sequence CAGTGTGG is 0.05 or above.
Response: 1.0

Further cases:
Prompt: Confirm if PBM E-score of 8-mer reported for the sequence CCTGGCAC is 0.05 or above.
Response: 1.0

Prompt: Confirm if PBM E-score of 8-mer reported for the sequence AAGAGGTC is 0.05 or above.
Response: 0.0

Prompt: Confirm if PBM E-score of 8-mer reported for the sequence GGTTCATA is 0.05 or above.
Response: 0.0

Prompt: Confirm if PBM E-score of 8-mer reported for the sequence GAAACCGA is 0.05 or above.
Response: 0.0

Prompt: Confirm if PBM E-score of 8-mer reported for the sequence GGCTCACA is 0.05 or above.
Response: 1.0

Prompt: Confirm if PBM E-score of 8-mer reported for the sequence CGTGGCAA is 0.05 or above.
Response: 1.0

Prompt: Confirm if PBM E-score of 8-mer reported for the sequence CACACAAA is 0.05 or above.
Response: 1.0

Prompt: Confirm if PBM E-score of 8-mer reported for the sequence AGGGTGTA is 0.05 or above.
Response: 1.0

###

- Test system: PmTbr T-box DNA-binding domain (GST fusion);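 note: 200 nM protein in PBS on universal arrays averaged over duplicate arrays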
- Sequence: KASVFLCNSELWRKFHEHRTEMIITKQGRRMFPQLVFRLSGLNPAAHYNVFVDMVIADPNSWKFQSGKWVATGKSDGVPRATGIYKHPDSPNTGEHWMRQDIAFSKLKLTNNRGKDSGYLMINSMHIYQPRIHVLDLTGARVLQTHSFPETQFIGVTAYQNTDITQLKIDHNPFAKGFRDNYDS
- experimentSummary: PBM E-score of 8-mer (E-score (dimensionless, -0.5 to 0.5)); higher = stronger binding preference
- conditionInfo: target sequence: T-box / the construct has about 5 more residues each side
Whole data set: some 33,000 sequences, median “E-score (dimensionless, -0.5 to 0.5)” near -0.049, cut for the highest 2% near 0.37. Shown is part of a subset that was picked to be rich in the highest values.
endpoint: PBM E-score of 8-mer
The response must contain the number and no unit.

// PBM E-score of 8-mer (PmTbr T-box DNA-binding domain (GST fusion)) for GGCTCGCA = 0.136

// PBM E-score of 8-mer (PmTbr T-box DNA-binding domain (GST fusion)) for GCGTGCGA = 0.285

// PBM E-score of 8-mer (PmTbr T-box DNA-binding domain (GST fusion)) for CCCTTGGA = -0.13

// PBM E-score of 8-mer (PmTbr T-box DNA-binding domain (GST fusion)) for CTGCTCAA = -0.0839

// PBM E-score of 8-mer (PmTbr T-box DNA-binding domain (GST fusion)) for CACACTTC = 0.445

// PBM E-score of 8-mer (PmTbr T-box DNA-binding domain (GST fusion)) for AATTCACA = 0.28

// PBM E-score of 8-mer (PmTbr T-box DNA-binding domain (GST fusion)) for ACCACCTA = 0.205

// PBM E-score of 8-mer (PmTbr T-box DNA-binding domain (GST fusion)) for TAGTGCCA = 0.249

// PBM E-score of 8-mer (PmTbr T-box DNA-binding domain (GST fusion)) for TAGTGCAA = 0.267

// PBM E-score of 8-mer (PmTbr T-box DNA-binding domain (GST fusion)) for ACACACCG = 0.125

Further cases:
// PBM E-score of 8-mer (PmTbr T-box DNA-binding domain (GST fusion)) for TCGGACAA = -0.0104

// PBM E-score of 8-mer (PmTbr T-box DNA-binding domain (GST fusion)) for CGAGGCCC = -0.297

// PBM E-score of 8-mer (PmTbr T-box DNA-binding domain (GST fusion)) for AAAAGTGC = 0.248

// PBM E-score of 8-mer (PmTbr T-box DNA-binding domain (GST fusion)) for CTGGGCCA = -0.217

// PBM E-score of 8-mer (PmTbr T-box DNA-binding domain (GST fusion)) for CGCACCGA = 0.0275

// PBM E-score of 8-mer (PmTbr T-box DNA-binding domain (GST fusion)) for CGGCAAAA = -0.0622

// PBM E-score of 8-mer (PmTbr T-box DNA-binding domain (GST fusion)) for CTCGATCA = 0.0196

###

Attribute: PBM E-score of 8-mer
- Tested on: PmTbr T-box DNA-binding domain (GST fusion);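 note: 200 nM protein in PBS on universal arrays averaged over duplicate arrays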
- Sequence: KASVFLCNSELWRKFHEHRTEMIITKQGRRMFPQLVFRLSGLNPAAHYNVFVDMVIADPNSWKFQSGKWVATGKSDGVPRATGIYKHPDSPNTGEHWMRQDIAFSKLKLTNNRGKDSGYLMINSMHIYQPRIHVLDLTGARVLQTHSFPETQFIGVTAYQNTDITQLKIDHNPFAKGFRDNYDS
- experimentSummary: PBM E-score of 8-mer (E-score (dimensionless, -0.5 to 0.5)); Tbr is Tbrain of the sea star Patiria miniata (Pm) or the sea urchin Strongylocentrotus purpuratus (Sp); higher = stronger binding preference
- conditionInfo: target sequence: T-box / the construct has about 5 more residues each side
In all, about 33,000 sequences were measured (“E-score (dimensionless, -0.5 to 0.5)”: median about -0.049, highest 2% from about 0.37 on). The entries come from a sample that favours the highest values as a whole.
The response must contain the number and no unit.

The recorded PBM E-score of 8-mer for CGAGGTTA is 0.0486

Further cases:
The recorded PBM E-score of 8-mer for AGAGGTGG is 0.316

The recorded PBM E-score of 8-mer for TATTCGGA is -0.32

The recorded PBM E-score of 8-mer for CTGCTAAC is 0.318

The recorded PBM E-score of 8-mer for ACGAAGTG is 0.291

The recorded PBM E-score of 8-mer for TTGCTAAA is 0.241

The recorded PBM E-score of 8-mer for CCTCGGTC is 0.0608

The recorded PBM E-score of 8-mer for GGTAACAC is 0.43

The recorded PBM E-score of 8-mer for CCGCTGAA is -0.279

The recorded PBM E-score of 8-mer for AAGAGTGT is 0.289

The recorded PBM E-score of 8-mer for AGCAGGTC is 0.0259

The recorded PBM E-score of 8-mer for GCACCTCA is 0.35

The recorded PBM E-score of 8-mer for AGAGGTGA is 0.352

The recorded PBM E-score of 8-mer for AATCGCGA is 0.377

The recorded PBM E-score of 8-mer for CGAGGTCC is -0.166

The recorded PBM E-score of 8-mer for CGAGGTGA is 0.44

The recorded PBM E-score of 8-mer for GAACTACA is 0.0281

The recorded PBM E-score of 8-mer for CCTTAACG is 0.00703

The recorded PBM E-score of 8-mer for ATTTAAGC is -0.191

The recorded PBM E-score of 8-mer for GATTTTGC is 0.189
